- MEASURED_TARGET: Amyloid-beta precursor protein (Homo sapiens, UniProt P05067)
- Sequence (P05067 whole entry): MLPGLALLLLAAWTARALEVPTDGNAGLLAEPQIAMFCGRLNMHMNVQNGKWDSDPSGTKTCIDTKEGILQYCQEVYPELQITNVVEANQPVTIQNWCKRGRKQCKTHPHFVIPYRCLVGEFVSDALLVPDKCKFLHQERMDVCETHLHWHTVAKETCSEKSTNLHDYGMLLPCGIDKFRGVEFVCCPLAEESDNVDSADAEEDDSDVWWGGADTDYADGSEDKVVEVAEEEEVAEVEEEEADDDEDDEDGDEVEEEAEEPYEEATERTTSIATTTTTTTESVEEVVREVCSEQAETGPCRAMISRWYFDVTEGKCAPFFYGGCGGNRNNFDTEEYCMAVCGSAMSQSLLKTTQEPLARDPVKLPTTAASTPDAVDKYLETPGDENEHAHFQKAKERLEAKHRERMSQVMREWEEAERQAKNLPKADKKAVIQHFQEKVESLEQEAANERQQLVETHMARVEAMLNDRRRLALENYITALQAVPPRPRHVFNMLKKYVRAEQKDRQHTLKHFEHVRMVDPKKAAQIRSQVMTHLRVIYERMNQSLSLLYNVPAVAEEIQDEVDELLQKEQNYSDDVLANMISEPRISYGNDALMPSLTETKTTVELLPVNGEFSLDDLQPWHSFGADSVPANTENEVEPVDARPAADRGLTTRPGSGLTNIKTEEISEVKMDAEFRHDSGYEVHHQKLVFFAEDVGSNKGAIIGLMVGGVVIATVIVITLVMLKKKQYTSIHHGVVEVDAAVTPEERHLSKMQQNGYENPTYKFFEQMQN
- EXPERIMENT_SUMMARY: Disaggregation of Fe3+ induced Amyloid beta (1 to 42) (unknown origin) aggregation at 100 uM incubated for 24 hrs by ThioflavinT-dye based fluorescence analysis
Active and inactive are the calls of the source. The calls are words filed in the database; no cut-off is given here.

| SMILES_STRING | Activity |
| --- | --- |
| COC(=O)c1c(O)cc(C)c(Sc2c(O)cc(OC)c(Oc3c(O)cc(C)cc3O)c2O)c1C(=O)c1c(O)cc(C)cc1O | Active |
| Cc1cc(O)c(C(=O)c2c(O)cc3c(c2O)C(=O)c2c(O)cc(C)cc2C3=O)c(C(=O)c2cc(O)c(O)cc2O)c1 | Active |
| COc1cc(O)cc(C(=O)O)c1C(=O)c1c(O)cc(CO)cc1O | Active |
| COC(=O)c1cc(O)cc(OC)c1C(=O)c1c(O)cc(CO[C@H]2O[C@H](CO)[C@@H](O)[C@H](O)[C@H]2O)cc1O | Active |

* * *

- MEASURED_TARGET: Amyloid-beta precursor protein (Homo sapiens)
- EXPERIMENT_SUMMARY: Inhibition of Amyloid beta (1 to 42) (unknown origin) aggregation at 100 uM incubated for 24 hrs by ThioflavinT-dye based fluorescence analysis
OBSERVABLE: inhibition (%)

| SMILES_STRING | READING_UNIT | TEST_VALUE |
| --- | --- | --- |
| COc1cc(O)cc(C(=O)O)c1C(=O)c1c(O)cc(CO)cc1O | % | 73.2 |
| COC(=O)c1c(O)cc(C)cc1C(=O)c1cc(O)cc2oc3cc4c(c(O)c3c12)C(=O)c1c(O)cc(C)cc1C4=O | % | 85.5 |
| Cc1cc(O)c(C(=O)c2c(O)cc3c(c2O)C(=O)c2c(O)cc(C)cc2C3=O)c(C(=O)c2cc(O)c(O)cc2O)c1 | % | 86.3 |
| COC(=O)c1c(O)cc(C)c(Sc2c(O)cc(OC)c(Oc3c(O)cc(C)cc3O)c2O)c1C(=O)c1c(O)cc(C)cc1O | % | 85.7 |
| COC(=O)c1cc(O[C@@H]2O[C@H](COC(=O)CCC(=O)O)[C@@H](O)[C@H](O)[C@H]2O)cc(OC)c1C(=O)c1c(O)cc(C)cc1O | % | 64.1 |
| COC(=O)c1cc(O)cc(OC)c1C(=O)c1c(O)cc(CO[C@H]2O[C@H](CO)[C@@H](O)[C@H](O)[C@H]2O)cc1O | % | 84.5 |
| COC(=O)c1cc(O[C@@H]2O[C@H](CO)[C@@H](O)[C@H](O)[C@H]2O)cc(OC)c1C(=O)c1c(O)cc(C)cc1O | % | 85.2 |

* * *

- MEASURED_TARGET: UniProt:P05067
- EXPERIMENT_SUMMARY: Inhibition of Amyloid beta (1 to 42) (unknown origin) aggregation incubated for 24 hrs by ThioflavinT-dye based fluorescence analysis
pIC50: −log10 of the molar value.
OBSERVABLE: pIC50

Use these answered entries as a reference point.
| COMPOUND | TEST_VALUE |
| --- | --- |
| COC(=O)c1cc(O[C@@H]2O[C@H](COC(=O)CCC(=O)O)[C@@H](O)[C@H](O)[C@H]2O)cc(OC)c1C(=O)c1c(O)cc(C)cc1O | 5.52 |
| O=C(O[C@@H]1Cc2c(O)cc(O)cc2O[C@@H]1c1cc(O)c(O)c(O)c1)c1cc(O)c(O)c(O)c1 [EPIGALOCATECHIN GALLATE] | 6.85 |
| COC(=O)c1cc(O)cc(OC)c1C(=O)c1c(O)cc(CO[C@H]2O[C@H](CO)[C@@H](O)[C@H](O)[C@H]2O)cc1O | 5.99 |
| COC(=O)c1c(O)cc(C)cc1C(=O)c1cc(O)cc2oc3cc4c(c(O)c3c12)C(=O)c1c(O)cc(C)cc1C4=O | 5.81 |

1 = Cc1cc(O)c(C(=O)c2c(O)cc3c(c2O)C(=O)c2c(O)cc(C)cc2C3=O)c(C(=O)c2cc(O)c(O)cc2O)c1
2 = COc1cc(O)cc(C(=O)O)c1C(=O)c1c(O)cc(CO)cc1O
3 = COC(=O)c1cc(O[C@@H]2O[C@H](CO)[C@@H](O)[C@H](O)[C@H]2O)cc(OC)c1C(=O)c1c(O)cc(C)cc1O
4 = COC(=O)c1c(O)cc(C)c(Sc2c(O)cc(OC)c(Oc3c(O)cc(C)cc3O)c2O)c1C(=O)c1c(O)cc(C)cc1O
Data request: Sort ascending by pIC50. To answer, write out the labels according to the requested order.
Data returned: 3, 2, 1, 4

* * *

- EXPERIMENT_SUMMARY: Metal chelating activity assessed as compound-Fe3+ complex formation incubated for 1 hr by UV-vis spectrophotometric analysis
Active and inactive are the calls of the source. The rule behind the calls is not given here.
OBSERVABLE: Activity

| SMILES_STRING | OBSERVABLE | TEST_VALUE |
| --- | --- | --- |
| COC(=O)c1cc(O)cc(OC)c1C(=O)c1c(O)cc(CO[C@H]2O[C@H](CO)[C@@H](O)[C@H](O)[C@H]2O)cc1O | Activity | Active |
| Cc1cc(O)c(C(=O)c2c(O)cc3c(c2O)C(=O)c2c(O)cc(C)cc2C3=O)c(C(=O)c2cc(O)c(O)cc2O)c1 | Activity | Active |
| COC(=O)c1c(O)cc(C)c(Sc2c(O)cc(OC)c(Oc3c(O)cc(C)cc3O)c2O)c1C(=O)c1c(O)cc(C)cc1O | Activity | Active |
| COc1cc(O)cc(C(=O)O)c1C(=O)c1c(O)cc(CO)cc1O | Activity | Active |
